System: MCF7
assay_protocol: NCI tumour cell line growth inhibition, 48 h
The source made the active and inactive calls. Cut-off read from the data, not from the text of the source: active = GI50 up to about 1.1 µM and inactive = higher.
Your answer must be one of the following: 1.0 (active), 0.0 (inactive)

Past entries and their recorded results:
[[record]]
compound = "O=C1/C(=C/c2cccc(Cl)c2)CCCc2ccccc21"
class_assignment = 0.0

[[record]]
compound = "Cn1c(=O)c2c(nc(N)n2C2OC(CO)C(O)C2O)n(C)c1=O (stereo not given)"
class_assignment = 0.0

[[record]]
compound = "CC(=O)O[C@H]1C(=O)[C@@]2(C)C(C(OC(=O)c3ccccc3)[C@]3(O)C[C@H](OC(=O)C(OC(=O)CCCC(=O)NCCCN(C)C)C(NC(=O)c4ccccc4)c4ccccc4)C(C)=C1C3(C)C)C1(OC(C)=O)COC1C[C@@H]2O (stereo not given in full)"
class_assignment = 1.0


// switching to the query compound
For CCOC(=O)c1c2c(n3ccccc13)C(=O)c1ccccc1C2=O , which call appears in the assay record?
0.0
